meta.source: paper PMC3534021

# TARGET DESC: AIP TPR-domain R304Q mutant (Homo sapiens, UniProt O00170, R304Q)
# Construct: The TPR domain (residues 166–330) of human AIP; His tag (PreScission cleavable) (cleaved yes); made in house
# Sequence (O00170 166-330 R304Q): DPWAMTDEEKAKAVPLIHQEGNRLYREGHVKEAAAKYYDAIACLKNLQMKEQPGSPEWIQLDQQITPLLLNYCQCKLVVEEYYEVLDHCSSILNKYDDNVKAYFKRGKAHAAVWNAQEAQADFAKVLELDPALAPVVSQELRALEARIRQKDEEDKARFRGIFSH
# EXPERIMENT NOTES: Isothermal titration calorimetry, R304Q AIP TPR-domain
# Type: binding
# CONDITION LABEL: ITC, 20 mM Tris pH 7.5, 5 mM NaCl, 30°C, peptide 350-600 µM injected into 30 µM TPR-domain
Where no end group is shown, it is not given here.
MEASUREMENT TYPE: pKd
Give bare numbers, as −log10 of the molar value.

**Query** Which pKd value is on record for AQSLAEDDVE [AQSLAEDDVE] ?
**Result** 4.65
